// reported protein stability index for each item listed
Test: protein stability index of a GFP-peptide fusion (yeast GPS) (PSI 1-4); higher = more stable; sorted into four equal gates, so the index is relative within each strain
Details: ubr1∆
Note: the reply should be a number with no unit written.

Recorded results for 4 sequences are shown here.
KNGTIVKKAVTVHSKSR [RPL19A]
1.96
NISNAKLANFFSKKGNE [YAR002W/NUP60]
2.33
QDLSRNTLGKGQNCLDI [SNU114]
3.61
LDENKWYKFNDDKVSVV [UBP6]
2.97

Entry under review: HSRKMNLTRGINLRKVA [RPT6] . Reported protein stability index?
1.2

Consider the sequence KRPYESSRLDAELKLAG [RPS9A] and give its measured protein stability index.
2.96

Endpoint output: protein stability index of DNVSKNALDKLRNNLNS [YCG1] . Value?
3.01

What value of measured protein stability index is listed for NKASLAQYEVLANYLTS [QCR2] ?
2.64

Please report the recorded protein stability index for LLEPPAKELQGIDPDET [RPO31] .
3.18

Given the sequence DLPISSTDNEAITISNS [SMC1] , what is its reported protein stability index?
2.91

Record request: protein stability index value, item VLDHQRAIPFRRFNSSI [RPL17A]
1.4
